System: ERK4
Construct: gene MAPK4
Conditions: concentration: 1 μM, replicates: in singlicate; n = 1;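 further: KINOMEscan kinase panel screen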
assay_endpoint: %Inh (%)
Lab book: enter the figure in %, no units written.

{"columns": ["molecule", "tested_system", "%Inh (%)"],
 "data": [
  ["Cc1nnc(-c2ccc3occ(-c4ccc(C(C)O)cc4)c3c2)o1 (stereo not drawn)", "ERK4", 10],
  ["Cc1cccc(-c2nc(-c3ccc(S(C)(=O)=O)cc3)sc2-c2ccncc2)c1", "ERK4", 0],
  ["Cc1nnc(-c2ccc(C)c(-c3ccc(C(=O)Nc4ccc(NS(C)(=O)=O)cc4)cc3)c2)o1 [GW702865]", "ERK4", 0],
  ["Cl.Cl.Cl.Fc1ccc(-c2ncn(C3CCNCC3)c2-c2ccnc(Nc3ccccc3)n2)cc1 [SB-238039]", "ERK4", 0],
  ["Cn1cc(-c2ccc3c(c2)CCN3C(=O)Cc2ccccc2Cl)c2c(N)ncnc21 [GSK2608885]", "ERK4", 23]
]}

Please respond with reported %Inh (system ERK4) for O=C(NCCNc1ccnc(Nc2ccc(F)cc2)n1)Nc1ccccc1F [GSK1379880] .
8

Please respond with reported %Inh (system ERK4) for Cc1ccc(C(=O)NCC(N)=O)cc1-n1c(C)cc(OCc2ccc(F)cc2F)c(Br)c1=O .
0

Please respond with reported %Inh (system ERK4) for COc1ccc(CNC(=O)NC2CCN(c3ccnc(Nc4ccc(OC)cc4)n3)C2)cc1 (stereo not drawn) [GSK1379727] .
20

Please respond with reported %Inh (system ERK4) for Fc1ccc(-c2ncn(CCCN3CCOCC3)c2-c2cccnc2)cc1 [SB-211743] .
0

###

Tested on: MAP3K15
Conditions: concentration: 1 μM, replicates: in singlicate; n = 1
assay_endpoint: %Inh (%)
Lab book: enter the figure in %, no units written.

{"columns": ["molecule", "value_measured"],
 "data": [
  ["COc1ccc(Nc2nccc(N3CCC(NC(=O)Nc4cccc(C(C)=O)c4)C3)n2)cc1 (centres unmarked) [GSK1379731]", 0],
  ["COc1ccc(S(=O)(=O)NC2CCN(c3cc(C)nc(Nc4cccc(C#N)c4)n3)CC2)cc1.O=C(O)C(F)(F)F [GSK1653539]", 0]
]}

Consider the molecule Fc1ccc(-c2ncn(CCCN3CCOCC3)c2-c2cccnc2)cc1 [SB-211743] . State its measured %Inh.
0

Consider the molecule COc1cc2ncn(-c3cc(OCc4sccc4Cl)c(C(N)=O)s3)c2cc1OC [GSK448459] . State its measured %Inh.
0

Consider the molecule CCc1ccnc(/C=C/c2n[nH]c3cc(Sc4ccccc4C(=O)NC)ccc23)c1 . State its measured %Inh.
0

Consider the molecule [2H]C([2H])(c1cccc(C(F)(F)F)c1C)n1ccn2c(=O)nc(N3CCOCC3)cc12 [GSK2336394] . State its measured %Inh.
0

Consider the molecule Nc1nccc(-c2c(-c3ccc(F)cc3)ncn2C2CCN(CC(F)(F)F)CC2)n1 [SB-236560] . State its measured %Inh.
0

Consider the molecule O=C1NC(=O)C(N2CCc3ccccc32)=C1c1cccc(Cl)c1 [SB-408010] . State its measured %Inh.
1

Consider the molecule COc1ccc(Nc2nccc(N3CCC(NC(=O)Nc4cc(C)ccc4C)C3)n2)cc1 (centres unmarked) [GSK1379741] . State its measured %Inh.
0

Consider the molecule Cc1c(Cn2c(C)nn3c(=O)cc(N4CCOC(C)C4)nc23)cccc1C(F)(F)F (centres unmarked) [GSK2344444] . State its measured %Inh.
10

Consider the molecule COc1ccc(CNC(=O)NC2CCN(c3ccnc(Nc4ccc(OC)cc4)n3)C2)cc1 (centres unmarked) [GSK1379727] . State its measured %Inh.
0

Consider the molecule N#Cc1ccc(-c2cc(-c3c[nH]nc3-c3ccccn3)ccn2)cc1 [GW693028] . State its measured %Inh.
0

Consider the molecule NS(=O)(=O)CCc1cccc(Nc2nccc(-c3c(-c4cccc(NC(=O)c5c(F)cccc5F)c4)nn4ccccc34)n2)c1 [GSK336735] . State its measured %Inh.
5

Consider the molecule Cl.Nc1ncnc2occ(-c3ccc(NC(=O)Nc4cc(C(F)(F)F)ccc4F)cc3)c12 [SB-707548] . State its measured %Inh.
5

Consider the molecule CN1c2ccc(NCc3ccc(F)cc3)cc2-c2c(cnn2C)S1(=O)=O . State its measured %Inh.
0

Consider the molecule NS(=O)(=O)c1cccc(-c2ccc3ncc(N4CCOCC4)nc3c2)c1 [GSK1535721] . State its measured %Inh.
0

Consider the molecule CC(=O)Nc1ccc(COc2ccc(Nc3ccnc4cc(-c5ccccn5)ccc34)cc2)cc1.Cl [GW440148] . State its measured %Inh.
2

###

Property: %Inh; scope: individual molecules
Test system: CSNK1E
Conditions: concentration: 1 μM, replicates: in singlicate; n = 1
Lab book: enter the figure in %, no units written.

Past entries and their recorded results:
{"columns": ["molecule", "assay_endpoint", "value_measured"],
 "data": [
  ["Nc1nc(-c2ccc3c(N)n[nH]c3c2)cc(N2CCCC2)n1", "%Inh", 25],
  ["NCC(NC(=O)c1cc(-c2cn[nH]c2)c(-c2ccnc3[nH]ccc23)s1)c1ccccc1.O=C(O)C(F)(F)F.O=C(O)C(F)(F)F (stereo not shown)", "%Inh", 99.4],
  ["Nc1nccc(-c2c(-c3ccc(F)cc3)ncn2C2CCN(CC(F)(F)F)CC2)n1", "%Inh", 96.6]
]}

# ---- query molecule ----
Consider the molecule CC(C)(CN)c1nc(-c2ccc(Cl)c(O)c2)c(-c2ccncc2)[nH]1.O=C(O)C(F)(F)F . State its measured %Inh.
99.6

###

System: HIPK3
Settings: concentration: 1 μM, replicates: in singlicate; n = 1
Property: %Inh; scope: individual compounds
Lab book: enter the figure in %, no units written.

Past entries and their recorded results:
{"columns": ["structure_string", "uom", "%Inh"],
 "data": [
  ["O=C1Cc2cc(Nc3nc(NCc4cccc(S(=O)(=O)C(F)(F)F)c4)ncc3C(F)(F)F)ccc2N1", "%", 0],
  ["Cc1ccc(NC(=O)c2ccnc(N3CCN(C)CC3)c2)cc1-c1ccc(C(=O)NCC2CC2)cc1", "%", 0],
  ["Nc1nc(-c2ccc3c(N)n[nH]c3c2)cc(N2CCCC2)n1", "%", 0]
]}

# ---- query compound ----
Consider the compound NS(=O)(=O)c1cccc(-c2ccc3ncc(N4CCOCC4)nc3c2)c1 . State its measured %Inh.
1

###

System: BMX
Conditions: concentration: 1 μM, replicates: in singlicate; n = 1
Just a reminder that ties go to Not met: only %Inh strictly below 1% counts as Met.

{"columns": ["compound", "tested_system", "label_value"],
 "data": [
  ["O=C1NC(=O)C(N2CCc3ccccc32)=C1c1cccc(Cl)c1", "BMX", "Not met"]
]}

Check if %Inh falls below 1% for Cc1c2ccc(N(C)c3ccnc(Nc4cccc(S(N)(=O)=O)c4)n3)cc2nn1Cc1ccccc1.Cl.Cl .
Not met

Check if %Inh falls below 1% for Cn1ccc2ncnc(Oc3ccc(NC(=O)Nc4ccncc4)c(Cl)c3)c21 .
Met

Check if %Inh falls below 1% for Cc1cccc(-c2nc(Nc3ccc4ncsc4c3)c3ccccc3n2)n1 .
Met

Check if %Inh falls below 1% for CCCCCc1nc2c(N)ncnc2n1CCCCC .
Not met

Check if %Inh falls below 1% for Cc1nnc(-c2ccc3occ(-c4ccc(C(C)O)cc4)c3c2)o1 (stereo not drawn) .
Not met

Check if %Inh falls below 1% for CN(C(=O)c1ccc(-c2cc(-c3c[nH]nc3-c3ccccn3)ccn2)cc1)C1CCOCC1 .
Met

###

System: PRKCQ
Conditions: concentration: 1 μM, replicates: in singlicate; n = 1
Property: %Inh; scope: individual compounds
Lab book: enter the figure in %, no units written.

Past entries and their recorded results:
{"columns": ["compound", "%Inh / %"],
 "data": [
  ["NS(=O)(=O)CCc1cccc(Nc2nccc(-c3c(-c4cccc(NC(=O)c5c(F)cccc5F)c4)nn4ccccc34)n2)c1", 55],
  ["Cc1cccc(-c2nc(-c3ccc(S(C)(=O)=O)cc3)sc2-c2ccncc2)c1", 9],
  ["Cc1nnc(-c2ccc3ncc(-c4ccc(S(C)=O)cc4)n3c2)o1 (stereo not shown)", 0]
]}

Consider the compound COc1cc2c(cc1OC[C@@H](O)CO)ncc1c3ccc(C#N)cc3[nH]c21 . State its measured %Inh.
0

###

Property: %Inh; scope: individual compounds
Test system: PLK1
Conditions: concentration: 1 μM, replicates: in singlicate; n = 1
Lab book: enter the figure in %, no units written.

Past entries and their recorded results:
{"columns": ["compound", "tested_system", "value_measured"],
 "data": [
  ["COc1ccc(Nc2nccc(N3CCC(NC(=O)Nc4cc(C)ccc4C)C3)n2)cc1 (stereo not drawn) [GSK1379741]", "PLK1", 0],
  ["COc1ccc(Nc2ncc(C#N)c(Nc3ccccc3C(N)=O)n2)cc1N1CCN(C)CC1.Cl [GSK1558669]", "PLK1", 100],
  ["NS(=O)(=O)c1cccc(-c2ccc3nccc(-c4cccc(S(N)(=O)=O)c4)c3c2)c1 [GW867253]", "PLK1", 24],
  ["Cc1cccc(Cn2ccn3c(=O)cc(N4CCOCC4)nc23)c1 [GSK2297542]", "PLK1", 14],
  ["O=C(NOCC1CC1)c1ccc(F)c(F)c1Nc1ccc(I)cc1Cl", "PLK1", 0],
  ["CC(C)(C)n1cnc2c(N)ncnc21 [SKF-97359]", "PLK1", 0],
  ["COc1ccc(Nc2nccc(N3CCC(NC(=O)Nc4cccc(C(C)=O)c4)C3)n2)cc1 (stereo not drawn) [GSK1379731]", "PLK1", 7],
  ["Fc1ccc(-c2nn3c(OCC(F)(F)F)cccc3c2-c2ccncc2)cc1 [GW514784]", "PLK1", 0]
]}

# ---- query compound ----
Consider the compound Cl.Nc1ncnc2occ(-c3ccc(NC(=O)Nc4cc(C(F)(F)F)ccc4F)cc3)c12 [SB-707548] . State its measured %Inh.
5
